Data origin, for the record: PubChem BioAssay

Recorded composite z-score by entry
# STUDY_TARGET: Torsin-1A (Homo sapiens)
# ASSAY_TEXT: small-molecule binders of mutant TOR1A in lysate, primary screen, cell lysate, small-molecule microarray, COS7 lysate, 635/667 nm fluorescence (AID 1150);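 note: score pools 667 nm emission and signal to noise measuring lysate protein binding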
# CONDITION_NOTES: COS7 hTOR1A mutant lysate, 635 nm fluorescence, higher = more signal
Please reply with the number alone, leaving off any unit.

>>> observed_result("COCCOC(=O)N1C(=O)[C@@]2(c3cc(C#CCCO)ccc31)[C@H](C(=O)Nc1nc3ccccc3s1)[C@H]1C(=O)O[C@H](c3ccccc3)[C@H](c3ccccc3)N1[C@@H]2c1ccc(OCCO)cc1")
1.42
>>> observed_result("CN1C(=O)C2C=CC(C(O)c3cc(C(F)(F)F)cc(C(F)(F)F)c3)N(N3CCCCC3)C2C1=O (stereo not drawn)")
0.502
>>> observed_result("CCN(CC)c1ccc(N2CC=CC34O[C@@H]5/C=C\\CCC(C)OC(=O)C5[C@H]3C(=O)N(C(CO)C(C)C)[C@@H]4C2=O)cc1 (stereo partly drawn)")
-1.32

Reported composite z-score for C=CCNC(=O)[C@@H]1[C@H]2C(=O)O[C@H](c3ccccc3)[C@H](c3ccccc3)N2[C@H](c2ccc(OCCO)cc2)[C@@]12C(=O)Nc1ccc(C#Cc3ccc(OC)cc3)cc12 : what is it?
0.602

Reported composite z-score for CCCCCN1CC=CC23O[C@@H]4/C=C\CCCOC(=O)C4[C@H]2C(=O)N(C(CO)C(C)C)[C@@H]3C1=O (stereo partly drawn) : what is it?
-0.436

Reported composite z-score for COc1ccc([Si](C)(C)[C@@H]2[C@@H](CCO)O[C@]3(C(=O)N(Cc4ccc(N5C(=O)COc6ccccc65)cc4)c4ccccc43)[C@H]2C)cc1 : what is it?
0.586

Reported composite z-score for O=C1C2C=CC(C(O)c3ccc(F)cc3)N(Nc3ccccc3F)C2C(=O)N1c1ccccc1 (stereo not drawn) : what is it?
0.845

Reported composite z-score for C[N+](C)(C)CCCCNC(=O)[C@H]1C[C@H]2C(=O)N[C@@H](Cc3ccccc3)C(=O)N2[C@H]1c1ccc(O)cc1 : what is it?
0.513

Reported composite z-score for C=CCOC(=O)[C@H]1[C@@H]2C(=O)O[C@@H](c3ccccc3)[C@@H](c3ccccc3)N2[C@@H](c2ccc(OCCOC(=O)[C@@H]3C[C@@H]4C(=O)N5CCC[C@H]5C(=O)N4[C@@H]3c3cccc(OCCO)c3)cc2)[C@]12C(=O)Nc1ccccc12 : what is it?
0.767

###

# STUDY_TARGET: Pro-neuregulin-1, membrane-bound isoform (Homo sapiens) (UniProt Q02297)
# Sequence (Q02297 whole entry, looked up, canonical isoform): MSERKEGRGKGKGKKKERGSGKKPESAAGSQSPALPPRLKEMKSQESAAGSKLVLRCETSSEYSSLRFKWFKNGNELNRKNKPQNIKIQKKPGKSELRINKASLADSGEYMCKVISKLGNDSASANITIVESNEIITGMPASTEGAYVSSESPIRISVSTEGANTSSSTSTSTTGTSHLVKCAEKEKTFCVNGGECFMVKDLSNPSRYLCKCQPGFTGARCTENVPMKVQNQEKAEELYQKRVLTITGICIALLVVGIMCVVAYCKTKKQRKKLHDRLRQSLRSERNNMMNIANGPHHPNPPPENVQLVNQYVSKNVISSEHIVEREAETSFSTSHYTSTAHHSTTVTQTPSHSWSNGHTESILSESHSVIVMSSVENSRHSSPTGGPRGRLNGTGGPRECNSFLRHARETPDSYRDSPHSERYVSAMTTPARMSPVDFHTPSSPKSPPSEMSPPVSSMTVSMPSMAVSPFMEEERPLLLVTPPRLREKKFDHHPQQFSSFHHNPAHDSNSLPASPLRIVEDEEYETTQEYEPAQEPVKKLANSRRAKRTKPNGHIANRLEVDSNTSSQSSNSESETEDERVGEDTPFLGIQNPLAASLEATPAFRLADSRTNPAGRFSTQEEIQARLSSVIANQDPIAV
# ASSAY_TEXT: NRG1 binders on small-molecule microarrays, primary screen, psychiatric disease protein project, biochemical, small-molecule microarray, fluorescence 635/667 (AID 1075);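 note: score combines 667 nm spot fluorescence with signal to noise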
# CONDITION_NOTES: NRG1 binding, 635 nm fluorescence, higher = more signal
Threshold rule: composite z-score greater than or equal to 1 is MET; below that, NOT MET.

// known answers, use as guide
>>> label_value("[N-]=[N+]=Nc1ccccc1C[C@]1(C(=O)NCC(O)CO)N=C(c2ccc(OCCCO)cc2)O[C@H]1c1ccccc1N=[N+]=[N-] (some centres undefined)")
"MET"
>>> label_value("C=C(CCCC)C(=O)CC[C@H](OC(=O)c1cccnc1)c1ccccc1OCCO")
"NOT MET"
>>> label_value("COc1ccc(C(O)C2C=CC3C(=O)N(C)C(=O)C3N2N2CCCCC2)c2ccccc12 (centres undefined)")
"MET"
>>> label_value("C=CC[C@]1(C(=O)NCCCOC)N=C(c2ccc(OCCCO)cc2)O[C@H]1c1ccccc1N=[N+]=[N-]")
"NOT MET"
>>> label_value("C=CCNC(=O)[C@H]1[C@@H]2C(=O)O[C@@H](c3ccccc3)[C@@H](c3ccccc3)N2[C@@H](c2ccccc2OCCO)[C@]12C(=O)Nc1ccc(C#CC3=CCCCC3)cc12")
"NOT MET"
>>> label_value("COc1cc2c(cc1OC)CN(C(=O)[C@H]1[C@@H]3C(=O)O[C@@H](c4ccccc4)[C@@H](c4ccccc4)N3[C@@H](c3ccc(O)cc3)[C@]13C(=O)Nc1ccc(C#CCNC(N)=O)cc13)CC2")
"NOT MET"
>>> label_value("O=C1OCCC/C=C\\[C@H]2OC34C=CCN(Cn5nnc6ccccc65)C(=O)[C@H]3N(CCO)C(=O)[C@@H]4C12 (some centres undefined)")
"MET"
>>> label_value("C=CC[C@@]1(C(N)=O)N=C(c2ccc(OCCCO)cc2)O[C@@H]1c1ccccc1CN=[N+]=[N-]")
"MET"

# bool: composite z-score of CCOC(=O)C[C@H]1[C@H](OC(=O)c2cc3ccccc3oc2=O)[C@@H](NC(=O)C2CCCCC2)c2cc(OCCCO)ccc2N1C(=O)c1ccccc1 >= 1
NOT MET

# bool: composite z-score of COC(=O)c1c(CC[C@@H](CO)NC(=O)N[C@H](Cn2cc(Cc3ccccc3)nn2)C(C)C)oc(C(C)=O)c1C(=O)OC >= 1
NOT MET

# bool: composite z-score of COc1ccc([Si](C)(C)[C@@H]2[C@@H](CC(=O)N3Cc4ccccc4C[C@H]3CO)O[C@]3(C(=O)N(C)c4c(Br)cc(C)cc43)[C@H]2C)cc1 >= 1
NOT MET
